biological target: S. pneumoniae recombinant NanA 8919_LC (Streptococcus pneumoniae, UniProt P62575); test: biochemical
Sequence (P62575 116-833): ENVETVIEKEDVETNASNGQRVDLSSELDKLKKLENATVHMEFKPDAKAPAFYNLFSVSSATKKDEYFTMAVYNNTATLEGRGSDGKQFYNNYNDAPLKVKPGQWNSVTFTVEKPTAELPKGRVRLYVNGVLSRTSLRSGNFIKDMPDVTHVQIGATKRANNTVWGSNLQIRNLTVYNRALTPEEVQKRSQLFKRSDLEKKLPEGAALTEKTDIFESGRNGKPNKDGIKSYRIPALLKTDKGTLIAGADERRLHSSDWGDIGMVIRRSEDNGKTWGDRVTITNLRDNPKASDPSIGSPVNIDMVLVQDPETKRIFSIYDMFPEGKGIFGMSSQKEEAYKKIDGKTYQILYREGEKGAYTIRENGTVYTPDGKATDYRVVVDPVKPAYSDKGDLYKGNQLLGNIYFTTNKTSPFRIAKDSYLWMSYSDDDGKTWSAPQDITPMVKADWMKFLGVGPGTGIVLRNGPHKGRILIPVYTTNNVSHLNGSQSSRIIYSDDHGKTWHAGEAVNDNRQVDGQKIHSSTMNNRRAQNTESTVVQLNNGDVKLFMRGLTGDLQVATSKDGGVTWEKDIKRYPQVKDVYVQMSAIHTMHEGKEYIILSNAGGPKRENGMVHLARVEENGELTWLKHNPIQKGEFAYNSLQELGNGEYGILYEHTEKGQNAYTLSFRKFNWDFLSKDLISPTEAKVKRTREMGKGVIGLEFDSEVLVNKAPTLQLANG
parameter: pKi
Recall that pKi is obtained by taking minus log10 of the concentration measured in molar.

Dear colleague, I am looking for the recorded pKi of the following molecule: Cc1cc(N=Nc2ccc(N=Nc3c(O)c(S(=O)(=O)O)cc4cc(S(=O)(=O)O)ccc34)cc2C)ccc1N=Nc1ccc2cc(S(=O)(=O)O)cc(S(=O)(=O)O)c2c1 [Compound 1]
6.96

* * *

tested on: influenza A virus 8178/09; assay: microbe, parasite or virus in culture; assay type: cell-based, influenza A virus A/Jena/8178/2009 (H1N1)
parameter: 50% inhibitory concentration, influenza A virus 8178/09

O=S(=O)(O)c1ccc2c(/N=N/c3c(O)ccc4ccccc34)cccc2c1: Not active
O=[N+]([O-])c1cccc(/N=N/c2c(O)c(S(=O)(=O)O)cc3cc(S(=O)(=O)O)ccc23)c1: Not active
Cc1ccccc1/N=N/c1ccc(/N=N/c2c(O)ccc3cc(S(=O)(=O)O)cc(S(=O)(=O)O)c23)c(C)c1: Not active
O=S(=O)(O)c1ccc2c(/N=N/c3ccccc3)c(O)ccc2c1: Not active
